- ASSAY_SYSTEM: Fyn (UniProt P06241)
- Sequence (P06241 whole entry, looked up): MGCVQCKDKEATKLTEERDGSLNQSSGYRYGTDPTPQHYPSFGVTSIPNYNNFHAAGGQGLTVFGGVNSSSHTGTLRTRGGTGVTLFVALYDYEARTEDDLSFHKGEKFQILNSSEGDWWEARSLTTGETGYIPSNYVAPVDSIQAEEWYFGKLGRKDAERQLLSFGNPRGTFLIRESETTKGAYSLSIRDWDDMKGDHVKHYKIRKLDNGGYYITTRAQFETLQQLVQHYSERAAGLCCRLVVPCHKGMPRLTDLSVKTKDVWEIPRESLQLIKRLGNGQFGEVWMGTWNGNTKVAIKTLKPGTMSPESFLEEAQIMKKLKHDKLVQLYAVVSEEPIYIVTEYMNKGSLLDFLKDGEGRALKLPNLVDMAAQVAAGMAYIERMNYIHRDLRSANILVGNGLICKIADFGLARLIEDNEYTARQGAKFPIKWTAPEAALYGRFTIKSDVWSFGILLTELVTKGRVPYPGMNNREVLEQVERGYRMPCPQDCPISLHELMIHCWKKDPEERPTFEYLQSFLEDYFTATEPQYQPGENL
- TEST_METHOD_NOTES: phosphorylation enrichment, bacterial display (enrichment ratio); higher = better substrate or ligand; peptides without Tyr show the background;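 further: 11-residue human phosphosite peptides and single-mutation variants displayed on the E. coli surface, counted by deep sequencing, each peptide's frequency after selection divided by its frequency in the unselected input library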;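 further: frequency after pTyr selection over input frequency; kinase dosed for 20-30% of maximal phosphorylation in three min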
METRIC: phosphorylation enrichment

Examples with their reported phosphorylation enrichment follow.
>  <SEQUENCE_CHAIN>
IKEFKYGIEEH [GJA1_Y137_K134E]

>  <phosphorylation enrichment>
0.349

$$$$
>  <SEQUENCE_CHAIN>
SLNAVYPKAGS [OAS3_Y376_R378K]

>  <phosphorylation enrichment>
0.395

$$$$
>  <SEQUENCE_CHAIN>
PSDSGYSFETI [MAP1B_Y1921_YF]

>  <phosphorylation enrichment>
0.703

$$$$
>  <SEQUENCE_CHAIN>
TNYPLYLRSLE [MTM1_Y71_R69P]

>  <phosphorylation enrichment>
0.603

$$$$
>  <SEQUENCE_CHAIN>
LSIQTYSALNF [DES_Y423_P419S]

>  <phosphorylation enrichment>
4.8

$$$$
>  <SEQUENCE_CHAIN>
GADDSYYTVRS [ZAP70_Y492_A495V]

>  <phosphorylation enrichment>
1.44

$$$$
>  <SEQUENCE_CHAIN>
FRIGPYQPNVP [MATR3_Y784_YF]

>  <phosphorylation enrichment>
0.45

$$$$
>  <SEQUENCE_CHAIN>
WNEVGYDDIGG [VCP_Y203_L198W]

>  <phosphorylation enrichment>
0.422

$$$$

Q: Find the recorded phosphorylation enrichment belonging to GIADDYDKKKP [EIF1_Y54_L59P] and report it.
Result: 0.418

Q: // same read-out, input: SIKDKYVTALC [KCNH2_Y611_Y616C]
Result: 0.393

Q: // same read-out, input: LVRPPYSYLAL [FOXI1_Y126_S129L]
Result: 0.438
